Listed here are compounds together with their documented inhibition at 10 µM.
Molecular target: DNA gyrase (374 kDa Gyr A2B2 subunit from Staphylococcus aureus) (Staphylococcus aureus, UniProt P0A0K8)
Sequence (P0A0K8 whole entry): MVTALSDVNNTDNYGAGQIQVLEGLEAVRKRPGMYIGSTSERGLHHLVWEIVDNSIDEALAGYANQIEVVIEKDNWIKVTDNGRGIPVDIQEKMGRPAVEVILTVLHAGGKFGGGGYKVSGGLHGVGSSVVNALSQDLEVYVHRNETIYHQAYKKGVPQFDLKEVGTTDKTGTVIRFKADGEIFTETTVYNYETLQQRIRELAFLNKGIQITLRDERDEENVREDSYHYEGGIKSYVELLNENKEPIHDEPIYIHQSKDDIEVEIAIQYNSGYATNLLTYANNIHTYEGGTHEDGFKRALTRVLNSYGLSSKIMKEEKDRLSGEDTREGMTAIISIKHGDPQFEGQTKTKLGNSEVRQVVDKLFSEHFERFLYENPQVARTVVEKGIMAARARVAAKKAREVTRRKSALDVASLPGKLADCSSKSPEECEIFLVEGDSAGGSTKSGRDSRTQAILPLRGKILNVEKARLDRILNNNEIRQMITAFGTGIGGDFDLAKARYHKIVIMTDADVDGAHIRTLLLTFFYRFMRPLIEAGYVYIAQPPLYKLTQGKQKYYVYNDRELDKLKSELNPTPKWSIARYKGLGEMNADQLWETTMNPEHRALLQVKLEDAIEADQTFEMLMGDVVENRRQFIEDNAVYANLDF
Sequence (P20831 whole entry, further chain): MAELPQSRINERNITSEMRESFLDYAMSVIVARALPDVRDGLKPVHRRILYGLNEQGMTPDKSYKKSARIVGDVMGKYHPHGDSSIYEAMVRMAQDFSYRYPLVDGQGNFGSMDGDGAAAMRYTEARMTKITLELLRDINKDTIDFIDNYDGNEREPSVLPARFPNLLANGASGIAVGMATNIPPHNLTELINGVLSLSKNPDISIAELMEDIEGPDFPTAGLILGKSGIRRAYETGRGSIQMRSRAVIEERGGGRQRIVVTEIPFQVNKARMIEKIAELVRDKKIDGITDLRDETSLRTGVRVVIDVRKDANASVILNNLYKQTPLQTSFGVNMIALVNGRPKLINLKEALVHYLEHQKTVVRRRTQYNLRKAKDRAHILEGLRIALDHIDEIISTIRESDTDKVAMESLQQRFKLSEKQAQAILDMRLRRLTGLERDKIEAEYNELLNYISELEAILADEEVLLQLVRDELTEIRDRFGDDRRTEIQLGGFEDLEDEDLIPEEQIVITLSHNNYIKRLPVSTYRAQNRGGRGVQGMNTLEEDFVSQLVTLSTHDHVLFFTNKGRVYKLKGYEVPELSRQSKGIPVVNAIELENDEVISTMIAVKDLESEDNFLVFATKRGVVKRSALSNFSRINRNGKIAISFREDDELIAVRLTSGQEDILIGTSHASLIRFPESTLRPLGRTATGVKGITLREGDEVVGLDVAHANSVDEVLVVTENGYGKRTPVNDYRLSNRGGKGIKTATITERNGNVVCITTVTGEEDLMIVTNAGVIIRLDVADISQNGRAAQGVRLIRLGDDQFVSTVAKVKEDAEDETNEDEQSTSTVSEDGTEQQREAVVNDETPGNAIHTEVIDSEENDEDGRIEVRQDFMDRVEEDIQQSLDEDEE
Test: Gyrase ATPase Assay
Assay type: biochemical
Details: 10 μM concentration; ATPase assay at 30° C., 0.9 mM ATP; average of duplicate values; read-out: Gyrase Inhibitory Activity (percent inhibition)

>  <compound>
CCOC(=O)Nc1nc2cc(-c3cncc(NC(C)=O)c3)ccc2[nH]1 [Ia-122]

>  <inhibition at 10 µM>
> 75%

$$$$
>  <compound>
CCNC(=O)Nc1nc2cc(-c3cnc(NC4CCCC4)nc3)ccc2[nH]1 [Ia-57]

>  <inhibition at 10 µM>
> 75%

$$$$
>  <compound>
CCNC(=N)Nc1nc2cc(-c3ccccc3)ccc2[nH]1 [Ia-101]

>  <inhibition at 10 µM>
< 50%

$$$$
>  <compound>
CCNC(=O)Nc1nc2cc(-n3cnc(C(=O)OC)c3)ccc2[nH]1 [Ia-156]

>  <inhibition at 10 µM>
> 75%

$$$$
>  <compound>
CCNC(=O)Nc1nc2cc(-c3cnc(SC)nc3)ccc2[nH]1 [Ia-92]

>  <inhibition at 10 µM>
> 75%

$$$$
>  <compound>
CCOC(=O)Nc1nc2cc(-c3cnc(NCC(=O)O)nc3)ccc2[nH]1 [Ia-80]

>  <inhibition at 10 µM>
> 75%

$$$$
>  <compound>
CC(C)NC(=O)Nc1nc2cc(-c3cccnc3)ccc2[nH]1 [Ia-120]

>  <inhibition at 10 µM>
50 to 75%

$$$$
>  <compound>
CCNC(=O)Nc1nc2cc(-c3cnc(NCC4CCCO4)nc3)ccc2[nH]1 (stereo not shown) [Ia-47]

>  <inhibition at 10 µM>
> 75%

$$$$
>  <compound>
CCNC(=S)Nc1nc2cc(-c3cnc(NCC(=O)O)nc3)ccc2[nH]1 [Ia-39]

>  <inhibition at 10 µM>
> 75%

$$$$
>  <compound>
CCNC(=O)Nc1nc2cc(-c3cnc(NCCCOC)nc3)ccc2[nH]1 [Ia-102]

>  <inhibition at 10 µM>
> 75%

$$$$

* * *

Biological target: DNA gyrase (374 kDa Gyr A2B2 subunit from Staphylococcus aureus) (Staphylococcus aureus)
Experiment: Gyrase ATPase Assay
Assay type: biochemical
Details: 10 μM concentration; ATPase assay at 30° C., 0.9 mM ATP; average of duplicate values; read-out: Gyrase Inhibitory Activity (percent inhibition)

>  <compound>
CCNC(=O)Nc1nc2cc(N3CCOCC3)ccc2[nH]1 [Ia-176]

>  <inhibition at 10 µM>
< 50%

$$$$
>  <compound>
CCNC(=O)Nc1nc2cc(-c3ccc(CNS(C)(=O)=O)cc3)ccc2[nH]1 [Ia-138]

>  <inhibition at 10 µM>
> 75%

$$$$
>  <compound>
CCOC(=O)Nc1cncc(-c2ccc3[nH]c(NC(=O)OCC)nc3c2)c1 [Ia-87]

>  <inhibition at 10 µM>
> 75%

$$$$
>  <compound>
CSc1ncc(-c2ccc3[nH]c(NC(=O)NC(C)C)nc3c2)cn1 [Ia-116]

>  <inhibition at 10 µM>
50 to 75%

$$$$
>  <compound>
CCNC(=O)Nc1nc2cc(-c3cccnc3)ccc2[nH]1 [Ia-118]

>  <inhibition at 10 µM>
> 75%

$$$$
>  <compound>
CCNC(=O)Nc1nc2cc(-c3cnc(N)nc3)c(OC)cc2[nH]1 [Ia-126]

>  <inhibition at 10 µM>
> 75%

$$$$
>  <compound>
CCCCNc1nc2cc(-c3cccnc3)ccc2[nH]1 [Ia-73]

>  <inhibition at 10 µM>
< 50%

$$$$
>  <compound>
CCOC(=O)Nc1nc2cc(-c3cccnc3)ccc2[nH]1 [Ia-11]

>  <inhibition at 10 µM>
> 75%

$$$$
>  <compound>
CCNC(=O)Nc1nc2cc(-c3cnc(N4CCN(C(C)=O)CC4)nc3)ccc2[nH]1 [Ia-113]

>  <inhibition at 10 µM>
> 75%

$$$$
>  <compound>
CCNC(=O)Nc1nc2cc(-n3ccc(=O)c(OCc4ccccc4)c3C)ccc2[nH]1 [Ia-160]

>  <inhibition at 10 µM>
> 75%

$$$$

* * *

Target: DNA gyrase (374 kDa Gyr A2B2 subunit from Staphylococcus aureus) (Staphylococcus aureus)
Assay: Gyrase ATPase Assay
Assay type: biochemical
Settings: 10 μM concentration; ATPase assay at 30° C., 0.9 mM ATP; average of duplicate values; read-out: Gyrase Inhibitory Activity (percent inhibition)
The compounds listed here are annotated with their inhibition at 10 µM.
attribute_measured: inhibition at 10 µM

>  <compound>
CCNC(=O)Nc1nc2cc(-c3cnc(NC(C)COC)nc3)cc(C)c2[nH]1 (centres unmarked)

>  <attribute_measured>
inhibition at 10 µM

>  <result>
> 75%

$$$$
>  <compound>
CCOC(=O)Nc1nc2cc(-c3ccc4[nH]c(NC(=O)OCC)nc4c3)ccc2[nH]1

>  <attribute_measured>
inhibition at 10 µM

>  <result>
> 75%

$$$$
>  <compound>
CCNC(=O)Nc1nc2cc(-c3cnc(N4CCC(O)C4)nc3)ccc2[nH]1 (centres unmarked)

>  <attribute_measured>
inhibition at 10 µM

>  <result>
> 75%

$$$$
>  <compound>
CCNC(=O)Nc1nc2cc(-c3cccnc3)c(OC)cc2[nH]1

>  <attribute_measured>
inhibition at 10 µM

>  <result>
> 75%

$$$$
>  <compound>
CCOC(=O)Nc1nc2cc(-c3cncc(N)c3)ccc2[nH]1

>  <attribute_measured>
inhibition at 10 µM

>  <result>
< 50%

$$$$
>  <compound>
CCNC(=O)Nc1nc2cc(-c3ccc(CN(C(=O)OC(C)(C)C)C(C)(C)C)nc3)ccc2[nH]1

>  <attribute_measured>
inhibition at 10 µM

>  <result>
> 75%

$$$$
>  <compound>
CCNC(=O)Nc1nc2cc(-c3cccnc3)cc(OCc3ccccc3)c2[nH]1

>  <attribute_measured>
inhibition at 10 µM

>  <result>
> 75%

$$$$
>  <compound>
CCOC(=O)Nc1nc2cc(-c3cnc(N4CCN(C(=O)OC(C)(C)C)CC4)nc3)ccc2[nH]1

>  <attribute_measured>
inhibition at 10 µM

>  <result>
50 to 75%

$$$$
>  <compound>
CCOC(=O)Nc1nc2cc(-c3ccccn3)ccc2[nH]1

>  <attribute_measured>
inhibition at 10 µM

>  <result>
50 to 75%

$$$$
>  <compound>
CCNC(=O)Nc1nc2cc(-c3cccnc3)c(C)c(C)c2[nH]1

>  <attribute_measured>
inhibition at 10 µM

>  <result>
> 75%

$$$$
>  <compound>
CCNC(=O)Nc1nc2cc(-n3cc(C(=O)NCc4cccnc4)cn3)ccc2[nH]1

>  <attribute_measured>
inhibition at 10 µM

>  <result>
> 75%

$$$$
>  <compound>
CCNC(=O)Nc1nc2cc(-c3ccc(N4CCCCC4)nc3)ccc2[nH]1

>  <attribute_measured>
inhibition at 10 µM

>  <result>
> 75%

$$$$
>  <compound>
CCNC(=O)Nc1nc2cc(-c3cnc(NCc4cccnc4)nc3)ccc2[nH]1

>  <attribute_measured>
inhibition at 10 µM

>  <result>
> 75%

$$$$
>  <compound>
CCNC(=O)Nc1nc2cc(-c3nnc(C)o3)ccc2[nH]1

>  <attribute_measured>
inhibition at 10 µM

>  <result>
50 to 75%

$$$$
>  <compound>
CCNC(=O)Nc1nc2cc(-c3cccnc3)cc(Cl)c2[nH]1

>  <attribute_measured>
inhibition at 10 µM

>  <result>
> 75%

$$$$
>  <compound>
CCCCNC(=O)c1cn(-c2ccc3[nH]c(NC(=O)NCC)nc3c2)cn1

>  <attribute_measured>
inhibition at 10 µM

>  <result>
> 75%

$$$$
>  <compound>
CCNC(=O)Nc1nc2cc(-c3cccnc3)c(N3CCCC3)cc2[nH]1

>  <attribute_measured>
inhibition at 10 µM

>  <result>
> 75%

$$$$

* * *

Biological target: DNA gyrase (374 kDa Gyr A2B2 subunit from Staphylococcus aureus) (Staphylococcus aureus, UniProt P0A0K8)
Assay: Gyrase ATPase Assay
Type: biochemical
Conditions: 10 μM concentration; ATPase assay at 30° C., 0.9 mM ATP; average of duplicate values; read-out: Gyrase Inhibitory Activity (percent inhibition)
Protocol: The ATP hydrolysis activity of DNA gyrase was measure by coupling the production of ADP through pyruvate kinase/lactate dehydrogenase to the oxidation of NADH. […] ATPase assays are carried out at 30° C. in buffered solutions containing 100 mM TRIS pH 7.6, 1.5 mM MgCl2, 50 mM KCl. […] The reaction is then started by the addition of ATP to a final concentration of 0.9 mM and the rate of NADH disappearance at 340 nanometers is measured over the course of 10 minutes. […]
Recorded inhibition at 10 µM values for a group of molecules are listed next.
attribute_measured: inhibition at 10 µM

>  <molecule>
CCNC(=O)Nc1nc2cc(-c3cnc(NCc4ccccn4)nc3)ccc2[nH]1

>  <result>
> 75%

$$$$
>  <molecule>
COC(=O)Nc1nc2cc(-c3ccccc3)ccc2[nH]1

>  <result>
< 50%

$$$$
>  <molecule>
CCOC(=O)Nc1nc2cc(-c3ccc(N(C)C)cc3)ccc2[nH]1

>  <result>
50 to 75%

$$$$
>  <molecule>
CCNC(=O)Nc1nc2cc(-c3cnc(OC(C)COC)nc3)c(OC)cc2[nH]1 (centres unmarked)

>  <result>
> 75%

$$$$
>  <molecule>
CCNC(=O)Nc1nc2cc(-c3cnc(NC(C)COC)nc3)ccc2[nH]1 (centres unmarked)

>  <result>
> 75%

$$$$
>  <molecule>
CCNC(=O)Nc1nc2cc(-c3cnc(NCc4ccc5c(c4)OCO5)nc3)ccc2[nH]1

>  <result>
> 75%

$$$$
>  <molecule>
CCNC(=O)Nc1nc2cc(-c3cccnc3)c(N3CCCCC3)cc2[nH]1

>  <result>
> 75%

$$$$
>  <molecule>
CCNC(=O)Nc1nc2cc(-c3cncc(C(=O)O)c3)ccc2[nH]1

>  <result>
> 75%

$$$$
>  <molecule>
C#CCOC(=O)Nc1nc2cc(-c3ccccc3)ccc2[nH]1

>  <result>
< 50%

$$$$
>  <molecule>
CCOC(=O)Nc1nc2cc(-c3ccccc3C(F)(F)F)ccc2[nH]1

>  <result>
< 50%

$$$$
>  <molecule>
CCNC(=O)Nc1nc2cc(-n3cnc(C(=O)NCc4cccnc4)c3)ccc2[nH]1

>  <result>
> 75%

$$$$
>  <molecule>
CCNC(=O)Nc1nc2nc(-n3cnc(C(=O)OC)c3)ccc2[nH]1

>  <result>
50 to 75%

$$$$
>  <molecule>
CCNC(=S)Nc1nc2cc(-c3cccnc3)ccc2[nH]1

>  <result>
> 75%

$$$$
>  <molecule>
CCNC(=O)Nc1nc2cc(-n3cc(C(=O)N4CCOCC4)cn3)ccc2[nH]1

>  <result>
> 75%

$$$$
>  <molecule>
CCNC(=O)Nc1nc2cc(-c3cnc(NCCN4CCCC4)nc3)ccc2[nH]1

>  <result>
> 75%

$$$$
>  <molecule>
CC(C)CNC(=O)Nc1nc2cc(-c3ccc(F)nc3)ccc2[nH]1

>  <result>
< 50%

$$$$
>  <molecule>
CCNC(=O)Nc1nc2cc(-c3cnc(N)nc3)ccc2[nH]1

>  <result>
> 75%

$$$$
>  <molecule>
CSc1ncc(-c2ccc3[nH]c(NC(=O)NC4CCCC4)nc3c2)cn1

>  <result>
< 50%

$$$$
>  <molecule>
COC(=O)CCNc1nc2cc(-c3cccnc3)ccc2[nH]1

>  <result>
< 50%

$$$$
>  <molecule>
CCOC(=O)Nc1nc2cc(-c3cnc(OC)nc3)ccc2[nH]1

>  <result>
> 75%

$$$$
